- TARGET SYSTEM: C-C chemokine receptor type 5 (Homo sapiens)
- Sequence (P51681 whole entry): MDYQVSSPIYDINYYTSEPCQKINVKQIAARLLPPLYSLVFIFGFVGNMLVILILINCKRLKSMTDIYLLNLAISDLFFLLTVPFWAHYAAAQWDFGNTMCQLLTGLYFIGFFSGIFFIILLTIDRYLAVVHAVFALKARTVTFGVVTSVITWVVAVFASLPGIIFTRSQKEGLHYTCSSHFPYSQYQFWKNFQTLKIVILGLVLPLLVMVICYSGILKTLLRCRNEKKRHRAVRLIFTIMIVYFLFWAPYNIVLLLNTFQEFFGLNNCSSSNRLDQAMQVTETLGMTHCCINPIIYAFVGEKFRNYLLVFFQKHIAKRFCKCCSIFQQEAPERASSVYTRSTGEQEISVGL
- ASSAY EXPLANATION: biochemical
- Description: Displacement of [125I]MIP1alpha from human CCR5 expressed in CHO cells
MEASURED PROPERTY: pIC50
Please note pIC50 is a logarithmic value: minus log10 of concentration in mol/L. Answer with that number alone.

[[record]]
compound = "O=C(O)[C@@H](C1CCCCC1)N1C[C@H](CN2CCC(c3cc(C(F)(F)c4ccccc4)n[nH]3)CC2)[C@@H](c2ccccc2)C1"
reported_measurement = 8.68

[[record]]
compound = "O=C(O)[C@@H](CC1CC1)N1C[C@H](CN2CCC(CCC(OCCO)c3ccc(F)cc3)CC2)[C@@H](c2cccc(F)c2)C1 (stereo partly drawn)"
reported_measurement = 8.43

[[record]]
compound = "C=C(Cc1ccccc1)[C@@H](C1CCCCC1)N1C[C@H](CN2CCC(O)(CCCc3ccccc3)CC2)[C@@H](c2ccccc2)C1"
reported_measurement = 8.44

[[record]]
compound = "O=C(O)[C@@H](C1CCCCC1)N1C[C@H](CN2CCC(c3cc(Cc4ccccc4)on3)CC2)[C@@H](c2ccccc2)C1"
reported_measurement = 8.92

[[record]]
compound = "O=C(O)[C@@H](C1CCCCC1)N1C[C@H](CN2CCC(c3cc(Cc4ccccc4)no3)CC2)[C@@H](c2ccccc2)C1"
reported_measurement = 9.10

[[record]]
compound = "CCc1nc(Cc2ccccc2)sc1C1CCN(C[C@H]2CN([C@H](CC3CCC3)C(=O)O)C[C@@H]2c2ccccc2)CC1"
reported_measurement = 9.12


Please look up its pIC50: O=C(O)[C@@H](CC1CCC1)N1C[C@H](CN2CCC(c3[nH]c(Cc4ccccc4)nc3Cl)CC2)[C@@H](c2ccccc2)C1 9.22

How about CCc1nc(Cc2ccccc2)sc1C1CCN(C[C@H]2CN([C@H](CC(C)C)C(=O)O)C[C@@H]2c2ccccc2)CC1 ? 9.00

---

- TARGET SYSTEM: UniProt:P51681
- ASSAY EXPLANATION: biochemical
Please note: IC50 exactly at 7 nM is no (0). Only values below 7 nM get yes (1).

These recorded examples may help you get a feel for the data.
[[record]]
structure_string = "CC(C)(c1ccccc1)c1cc(C2CCN(C[C@H]3CN([C@@H](C(=O)O)C4CCCCC4)C[C@@H]3c3ccccc3)CC2)[nH]n1"
classification = "no (0)"

[[record]]
structure_string = "O=C(O)[C@@H](CC1CCC1)N1C[C@H](CN2CCC(c3nnc4ccccn34)CC2)[C@@H](c2cccc(F)c2)C1"
classification = "no (0)"

[[record]]
structure_string = "O=C(O)[C@@H](CC1CCCCC1)N1C[C@H](CN2CCC(CCC(F)(F)c3ccc(F)cc3)CC2)[C@@H](c2ccccc2)C1"
classification = "yes (1)"

[[record]]
structure_string = "CCc1nc(Cc2ccccc2)oc1C1CCN(C[C@H]2CN([C@H](CC3CCC3)C(=O)O)C[C@@H]2c2ccccc2)CC1"
classification = "yes (1)"

[[record]]
structure_string = "CC(C)C[C@H](C(=O)O)N1C[C@H](CN2CCC(CCS(=O)(=O)c3ccc(F)cc3)CC2)[C@@H](c2cccc(F)c2)C1"
classification = "yes (1)"


Strictly below 7 nM: is that where IC50 of CC(C)C[C@H](C(=O)O)N1C[C@H](CN2CCC(CCC(F)(F)c3ccc(F)cc3)CC2)[C@@H](c2cccc(F)c2)C1 sits? yes (1)
